All values here come from patent US20250313535A1.

Biological target: α4β7 integrin (Homo sapiens (Human), UniProt P13612+P26010)
Sequence (P13612 34-1032): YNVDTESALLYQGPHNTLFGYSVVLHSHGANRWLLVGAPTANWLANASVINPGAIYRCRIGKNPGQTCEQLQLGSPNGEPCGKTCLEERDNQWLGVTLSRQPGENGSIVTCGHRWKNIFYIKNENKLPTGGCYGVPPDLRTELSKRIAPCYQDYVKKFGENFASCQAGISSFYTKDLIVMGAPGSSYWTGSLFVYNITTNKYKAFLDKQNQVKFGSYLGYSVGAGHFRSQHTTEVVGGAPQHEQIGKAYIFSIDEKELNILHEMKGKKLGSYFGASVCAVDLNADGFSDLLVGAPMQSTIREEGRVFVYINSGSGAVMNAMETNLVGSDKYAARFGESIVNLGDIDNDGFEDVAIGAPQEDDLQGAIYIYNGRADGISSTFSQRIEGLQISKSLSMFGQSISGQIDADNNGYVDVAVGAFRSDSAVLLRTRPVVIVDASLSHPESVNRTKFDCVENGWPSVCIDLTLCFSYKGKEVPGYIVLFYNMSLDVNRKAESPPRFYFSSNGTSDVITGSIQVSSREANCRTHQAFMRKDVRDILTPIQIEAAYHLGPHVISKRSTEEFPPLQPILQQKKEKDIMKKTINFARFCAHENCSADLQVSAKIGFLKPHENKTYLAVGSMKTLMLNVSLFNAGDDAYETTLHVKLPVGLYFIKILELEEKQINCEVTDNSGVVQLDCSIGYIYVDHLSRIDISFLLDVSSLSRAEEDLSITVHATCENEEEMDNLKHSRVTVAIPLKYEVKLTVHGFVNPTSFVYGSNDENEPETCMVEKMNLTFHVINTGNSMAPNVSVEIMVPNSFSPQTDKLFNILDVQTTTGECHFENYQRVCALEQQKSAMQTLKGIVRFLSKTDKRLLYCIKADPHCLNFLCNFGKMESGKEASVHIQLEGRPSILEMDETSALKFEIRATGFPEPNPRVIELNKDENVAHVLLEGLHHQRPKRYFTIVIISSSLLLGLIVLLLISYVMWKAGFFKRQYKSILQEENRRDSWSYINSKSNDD
Sequence (P26010 20-798): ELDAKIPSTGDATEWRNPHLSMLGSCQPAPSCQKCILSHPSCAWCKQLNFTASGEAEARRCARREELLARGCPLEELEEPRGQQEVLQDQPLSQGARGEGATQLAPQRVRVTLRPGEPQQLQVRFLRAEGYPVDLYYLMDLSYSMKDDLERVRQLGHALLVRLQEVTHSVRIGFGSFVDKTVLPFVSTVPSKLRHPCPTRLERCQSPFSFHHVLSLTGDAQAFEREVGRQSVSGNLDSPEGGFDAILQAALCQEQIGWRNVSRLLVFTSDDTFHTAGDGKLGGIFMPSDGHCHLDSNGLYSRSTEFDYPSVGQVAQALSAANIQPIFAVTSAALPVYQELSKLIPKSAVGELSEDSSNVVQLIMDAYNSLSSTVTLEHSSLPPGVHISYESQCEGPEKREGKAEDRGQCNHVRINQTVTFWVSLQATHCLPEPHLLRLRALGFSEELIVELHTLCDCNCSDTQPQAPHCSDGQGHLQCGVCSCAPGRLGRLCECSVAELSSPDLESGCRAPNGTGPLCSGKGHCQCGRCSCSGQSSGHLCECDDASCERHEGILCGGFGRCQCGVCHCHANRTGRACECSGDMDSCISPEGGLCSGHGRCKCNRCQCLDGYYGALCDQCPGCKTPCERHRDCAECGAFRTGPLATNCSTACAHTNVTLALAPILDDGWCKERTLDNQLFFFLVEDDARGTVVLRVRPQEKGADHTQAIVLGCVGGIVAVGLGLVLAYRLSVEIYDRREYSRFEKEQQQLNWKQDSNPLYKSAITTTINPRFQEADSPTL
Experiment: Integrin Adhesion Assay: Protocol 4 (MAdCAM-coated plate, RPMI-8866 cells with stable LOF mutation of the ITGB1 gene)
Format: cell-based
Conditions: Protocol 4; RPMI-8866 cells with LOF mutation of ITGB1, MAdCAM; read-out: Mean IC50 α4β7 KO
quantity: IC50

The following compounds have reported results that may help.
>  <compound>
COc1ccc(CN2CCC(F)(F)CC2)cc1-c1cccc2c(C[C@H](NC(=O)C3(C(F)(F)F)CCN(CC(F)F)CC3)C(=O)O)cccc12 [Compound 927]

>  <IC50>
< 10 nM

$$$$
>  <compound>
O=C(O)[C@H](Cc1cccc2c(-c3ncc(CN4CCOC(C(F)(F)F)C4)c4ccccc34)cccc12)NC(=O)C1(C(F)(F)F)CCN(CC(F)(F)F)CC1 (some centres unmarked) [Compound 856]

>  <IC50>
10 to 100 nM

$$$$

Record request: IC50 value, item COc1cc(CN2CCC(F)(F)CC2)cc(OC)c1-c1cccc2c(C[C@H](NC(=O)C3(C(F)(F)F)CCN(CC(F)(F)F)CC3)C(=O)O)cccc12 [Compound 795]
< 10 nM

Please give the result for CN1CCCC(c2cnc(-c3cccc4c(C[C@H](NC(=O)C5(C(F)(F)F)CCN(CC(F)(F)F)CC5)C(=O)O)cccc34)c(C(F)(F)F)c2)C1 (some centres unmarked) [Compound 758] too.
< 10 nM

Continue with O=C(O)[C@H](Cc1cccc2c(-c3ccccc3OCCN3CCCCC3)cccc12)NC(=O)C1(C(F)(F)F)CCN(CC(F)(F)F)CC1 [Compound 749]
10 to 100 nM

// same read-out, input: CC1(C)CCCN(Cc2cnc(-c3cccc4c(C[C@H](NC(=O)C5(C(F)(F)F)CCN(CC(F)(F)F)CC5)C(=O)O)cccc34)c3ccccc23)CC1 [Compound 876]
< 10 nM

Please answer likewise for O=C(O)[C@H](Cc1cccc2c(-c3ncc(CN4C5CCCC4CC5)c4ccccc34)cccc12)NC(=O)C1(C(F)(F)F)CCN(CC(F)F)CC1 [Compound 911]
< 10 nM

Same question, COc1cc(CN2CCCCC2)cc(C(F)(F)F)c1-c1cccc2c(C[C@H](NC(=O)C3(C(F)(F)F)CCN(CC(F)(F)F)CC3)C(=O)O)cccc12 [Compound 824] this time
< 10 nM

For COc1cccc(CN2CCC(F)CC2)c1-c1cccc2c(C[C@H](NC(=O)c3c(C)cccc3F)C(=O)O)cccc12 [Compound 1024] then?
10 to 100 nM

# iterate: Cn1c(=O)c(-c2cccc3c(C[C@H](NC(=O)c4c(F)cccc4F)C(=O)O)cccc23)c(C(F)(F)F)c2cc(CN)ccc21 [Compound 1051]
< 10 nM

Next compound up: COc1cc(CN2CCC[C@H](F)C2)cc(C(F)(F)F)c1-c1cccc2c(C[C@H](NC(=O)C3(C(F)(F)F)CCN(CC(F)(F)F)CC3)C(=O)O)cccc12 [Compound 848]
10 to 100 nM

Now the compound COc1ccc(CN2CC(C(F)(F)F)C2)c(OC)c1-c1cccc2c(C[C@H](NC(=O)C3(C(F)(F)F)CCN(CC(F)(F)F)CC3)C(=O)O)cccc12 [Compound 814]
10 to 100 nM

Try the compound COc1c(CN2CCCCC2)ccc(Cl)c1-c1cccc2c(C[C@H](NC(=O)C3(C(F)(F)F)CCN(CC(F)(F)F)CC3)C(=O)O)cccc12 [Compound 799]
< 10 nM

Would you mind doing COc1ccc(CN2CCC(F)CC2)cc1-c1cccc2c(C[C@H](NC(=O)C3(C(F)(F)F)CCN(CC(F)F)CC3)C(=O)O)cccc12 [Compound 940] as well?
< 10 nM
